System: A549
Experiment: NCI tumour cell line growth inhibition, 48 h
The source made the active and inactive calls. Rule as the data show it: active = GI50 up to about 1.1 µM and inactive = higher.
Select the matching outcome among 1 (yes) for active, 0 (no) for inactive

Query: recorded result category for C=CCOc1ccc(C2C(C(=O)OCC)C(=O)CC(C)(O)C2C(=O)OCC)cc1OC (stereo not drawn) in this test
0 (no)

Now try `O=C(c1ccccc1)c1nnc(C(=O)c2ccccc2)nn1` .
0 (no)

Please give the result for `CC(=O)C(CN1C(=O)c2ccccc2C1=O)C(C)=O` too.
0 (no)

Entry `O=C1C/C(=C\c2ccccc2)C(=O)c2ccccc2N1` please
0 (no)

`CO[C@]12C[C@@H](CNC(=O)c3cc(Br)c[nH]3)O[C@H]1NC(=O)N2` , same question.
0 (no)

Also `O=C(/C=C/c1ccc(O)c(O)c1)OCCCc1ccccc1` ?
0 (no)

What would you report for `Cc1ccc(/C=N/Nc2nncc3ccccc23)s1` ?
0 (no)

Lookup `Oc1ccc(C(c2ccc(O)cc2)c2ccc(O)cc2)cc1`
0 (no)

Same read-out for `O=C(/C=C/c1cccc(Oc2ccccc2)c1)NCc1ccc(C(=O)NCc2ccccc2)cc1` ?
0 (no)

COc1cc(C2c3cc4c(cc3[C@@H](NCCN3CCCCC3)C3COC(=O)[C@H]23)OCO4)cc(OC)c1O (stereo partly drawn) , same question.
1 (yes)

Then this molecule: CC1(C)C2C/C(=C\c3ccccc3)C(=O)C1C2 (stereo not drawn)
0 (no)

Next record, please: `COc1cc2c(cc1OC)C(=O)/C(=C/c1ccccc1)C2`
0 (no)

# iterate: `Cc1c2ncccc2c(C)c2c1[nH]c1ccccc12`
0 (no)

Consider next the molecule `COc1ccc(N2C(=O)c3cc([N+](=O)[O-])cnc3S2(=O)=O)cc1` in the same way.
0 (no)

Next molecule up: `Cc1cc(O)c2c(c1O)C(=O)c1cccc(O)c1C2=O`
0 (no)

Further, for `Cc1ccc(CS(=O)(=O)C/N=C2\Sc3ccccc3N\C2=C/C(=O)c2ccc(Cl)cc2)cc1` ?
0 (no)

What about `Cc1cc(NS(=O)(=O)c2ccc(Nc3c4ccccc4nc4c(C(=O)N5CCN(CCO)CC5)cccc34)cc2)no1` ?
0 (no)

Cool, now `O=C1CC(=O)n2cnc3cccc(c32)N1`
0 (no)

And then C1=C2C3=[N+](CCCC3)CC2Cc2sccc21 (stereo not drawn) , what is it?
0 (no)

Query COC(=O)[C@H](Cc1c[nH]c2ccccc12)NC(=O)OCC1OC(n2cc(C)c(=O)[nH]c2=O)CC1N=[N+]=[N-] (stereo partly drawn) next
0 (no)

Okay, and `OB(O)c1ccccc1C#Cc1ccccc1B(O)O` ?
0 (no)

Request: C[C@]12CC[C@H](O)CC1=CC[C@@H]1C2CC[C@]2(C)Nc3c(cnn3-c3ccc(F)cc3)CC12 (stereo partly drawn)
0 (no)

Next molecule: `N#Cc1sc2nc3ccccc3n2c1N`
0 (no)

----------
Tested on: HL-60
Experiment: NCI tumour cell line growth inhibition, 48 h
Activity calls are given as the source filed them. No stated cut-off is given here; in the data, active = GI50 up to about 1.1 µM and inactive = higher.
Field: GI50. Provide a value for each of the molecules that follow.

Which GI50 reading was recorded for the molecule `O=C1NCCS(=O)(=O)N2CCC[C@@H]12` ?
> 100 µM (inactive)

// same read-out, input: `COc1cc(OC)c2nc3occc3c(OC)c2c1`
94.8 µM (inactive)

Please do the same for O=C1CC23CCCCCCCCCCC2(C1)CC(=O)C3 (centres undefined) as well.
17.4 µM (inactive)

Subsequent entry: `Cc1cccc2oc3c(CC(=O)O)cccc3c(=O)c12`
> 100 µM (inactive)

Next molecule: `CC(=O)NNc1nc(C)c(C(=O)NNC(=O)C(=O)Nc2nc3ccc([N+](=O)[O-])cc3s2)s1`
36.8 µM (inactive)

Continue with `CC(=O)Nc1ccc(OC/C(N)=N/NC(=O)c2ccncc2)cc1`
> 100 µM (inactive)

Can you handle Oc1ccc2c3c1OC1c4[nH]ncc4C[C@H]4[C@@H](C2)N(CC2CC2)CC[C@]314 (some centres undefined) next?
> 100 µM (inactive)

Now try CC(C)CC(C#CCCOC(=O)c1ccccc1)OC(=O)c1ccccc1 (centres undefined) .
> 10 µM (inactive)

# repeat for COc1ccc(C2c3cc4c(cc3C(O)C3CCC(=O)N23)OCO4)cc1 (centres undefined)
> 100 µM (inactive)

Follow-up item: `Cc1cc(N=C2C=C(Br)C(=O)C(Br)=C2)cc(CN(CC(=O)O)CC(=O)O)c1O`
> 100 µM (inactive)

Same lookup for `N#Cc1ccc(/C=N\N2C(=O)c3ccccc3C2=O)cc1` , please.
> 100 µM (inactive)

Queued: COc1cc([C@@H]2c3cc4c(cc3[C@@H](NCc3ccccc3F)C3COC(=O)[C@@H]32)OCO4)cc(OC)c1O (some centres undefined)
1.18 µM (inactive)

For CCOC(=O)NC1C2CC(=O)C(O2)C1OCc1ccccc1 (centres undefined) then?
> 100 µM (inactive)

Then this molecule: `C/C(Cl)=N/OC(=O)Nc1ccc(S(N)(=O)=O)c(C)c1`
1.42 µM (inactive)
